Provenance of the data: BigSolDB 2.1

Details: in isobutanol, 288.15 K
endpoint_name: solubility (mole fraction)
Reply briefly: the number, and no unit.

Documented solubility (mole fraction) of CCCCCCCCCCCC(=O)O : 0.158

###

Conditions: in n-pentanol, 276.17 K
endpoint_name: solubility (mole fraction)
Provide a numeric answer; units are not to be included.

Documented solubility (mole fraction) of CCCCCCCCCCCC(=O)O : 0.0742

###

Conditions: in isobutanol, 285.15 K
endpoint_name: solubility (mole fraction)
Output spec: single numeric token, no unit.

What the record says about CCCCCCCCCCCC(=O)O : solubility (mole fraction) is 0.128

###

Conditions: in n-hexanol, 300.13 K
endpoint_name: solubility (mole fraction)
Answer as a number with no unit attached.

Recorded solubility (mole fraction) (compound CCCCCCCCCCCC(=O)O ): 0.39

###

Settings: in ethanol, 303.12 K
endpoint_name: solubility (mole fraction)
In your answer, state the number alone without any accompanying words.

Reported solubility (mole fraction) ( CCCCCCCCCCCC(=O)O ) = 0.386

###

Conditions: in n-pentanol, 306.12 K
endpoint_name: solubility (mole fraction)

Short answer for CCCCCCCCCCCC(=O)O : solubility (mole fraction) was 0.53

###

Conditions: in n-propanol, 276.17 K
endpoint_name: solubility (mole fraction)
Lab note: jot the number down without any unit.

Note to self: solubility (mole fraction) recorded for CCCCCCCCCCCC(=O)O was 0.054

###

Settings: in n-pentanol, 279.16 K
endpoint_name: solubility (mole fraction)
No unit in the answer, please; the number alone is enough.

// field: solubility (mole fraction); key: CCCCCCCCCCCC(=O)O ; value = 0.0907

###

Settings: in n-butanol, 294.14 K
endpoint_name: solubility (mole fraction)
Give the figure only, with no unit attached.

Form: compound = CCCCCCCCCCCC(=O)O ; solubility (mole fraction) = 0.229

###

Settings: in n-propanol, 282.16 K
endpoint_name: solubility (mole fraction)
Respond with the number and no other words.

Measured solubility (mole fraction), CCCCCCCCCCCC(=O)O : 0.0859

###

Settings: in isopentanol, 279.16 K
endpoint_name: solubility (mole fraction)
Reply with the value as a number alone.

Measured solubility (mole fraction) of CCCCCCCCCCCC(=O)O : 0.1

###

Conditions: in n-propanol, 306.12 K
endpoint_name: solubility (mole fraction)
Give the figure only, with no unit attached.

response.value for CCCCCCCCCCCC(=O)O (field: solubility (mole fraction)) = 0.488

###

Conditions: in ethanol, 300.13 K
endpoint_name: solubility (mole fraction)
Write the number on its own, no unit after it.

Input CCCCCCCCCCCC(=O)O . Output solubility (mole fraction): 0.305

###

Settings: in n-propanol, 297.13 K
endpoint_name: solubility (mole fraction)
A bare number is all that is needed in reply.

# solubility (mole fraction) (compound: CCCCCCCCCCCC(=O)O ) is 0.261

###

Conditions: in n-butanol, 282.16 K
endpoint_name: solubility (mole fraction)
The reply should be a number, written without any unit.

The reported value for CCCCCCCCCCCC(=O)O in terms of solubility (mole fraction) is 0.0999

###

Conditions: in n-hexanol, 297.13 K
endpoint_name: solubility (mole fraction)
Form: value (number only, do not type unit).

Recorded solubility (mole fraction) (compound CCCCCCCCCCCC(=O)O ): 0.322

###

Details: in isopentanol, 297.13 K
endpoint_name: solubility (mole fraction)
Number only, please.

Entry CCCCCCCCCCCC(=O)O — recorded solubility (mole fraction) = 0.315
